- Tested on: P388 leukemia ip, CD2F1 mice, survival T/C
- procedure summary: NCI In Vivo Anticancer Drug Screen. Data for tumor model P388 Leukemia (intraperitoneal) in CD2F1 (CDF1) mice
- experimental context: endpoint: median survival time; dose: 50.0 mg/kg/injection; schedule: Q01DX005 (ip); vehicle: Klucel (hydroxypropylcellulose) (HPC); higher = longer survival
Inconclusive results and toxic doses are left out.
parameter measured: T/C

[
  {
    "molecule": "Cc1ccc(C(O)(c2ccc(C)cc2)C2(O)CCN(C)CC2)cc1",
    "T/C": "107 % of control"
  },
  {
    "molecule": "CN1CCC/C1=C1/Cc2ccccc2C1=O",
    "T/C": "91 % of control"
  },
  {
    "molecule": "C=C(C)/C=C/S(=O)c1ccccc1 (stereo unspecified)",
    "T/C": "100 % of control"
  },
  {
    "molecule": "N/C(=N\\S(=O)(=O)c1ccccc1)[N+](=O)[O-]",
    "T/C": "102 % of control"
  },
  {
    "molecule": "C=C1C(=O)OC2C1C(OC(=O)/C(C)=C/C)CC1(C)C(O)CCC(=C)C21 (stereo unspecified)",
    "T/C": "114 % of control"
  }
]

T/C reading for "O=C1c2ccccc2C(=O)c2c(-c3ccc(Cl)cc3)noc21" : 94 % of control
